- testedTarget: T1, Human Serum Albumin (human, UniProt P02768 25-609)
- T1 construct: also called HSA
- T1 sequence (P02768 25-609 limits assumed): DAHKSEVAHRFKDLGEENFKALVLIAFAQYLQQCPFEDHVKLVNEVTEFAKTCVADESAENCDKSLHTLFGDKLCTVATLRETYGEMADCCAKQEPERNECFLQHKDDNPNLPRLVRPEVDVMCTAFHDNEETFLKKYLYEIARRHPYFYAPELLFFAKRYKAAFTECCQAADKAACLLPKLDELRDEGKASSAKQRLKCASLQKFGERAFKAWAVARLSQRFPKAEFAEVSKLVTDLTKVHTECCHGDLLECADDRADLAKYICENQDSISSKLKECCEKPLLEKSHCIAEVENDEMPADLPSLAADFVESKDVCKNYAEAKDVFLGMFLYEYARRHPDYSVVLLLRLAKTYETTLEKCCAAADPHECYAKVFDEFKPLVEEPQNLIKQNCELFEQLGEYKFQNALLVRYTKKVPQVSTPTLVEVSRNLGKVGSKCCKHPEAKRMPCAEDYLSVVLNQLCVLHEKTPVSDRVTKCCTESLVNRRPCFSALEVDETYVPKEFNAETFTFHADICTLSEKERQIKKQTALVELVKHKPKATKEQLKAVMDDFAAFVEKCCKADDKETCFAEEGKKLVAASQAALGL
- experiment: SPR Biacore T200, HSA on CM5 chip, ADAPT injected, 1:1 fit
kon strictly less than 300000 M⁻¹ s⁻¹ = Satisfied. Otherwise Not satisfied.

>  <binder>
LWWAKVWAVAELQKYGVSDFYFKLIDKAKTVEGVEALKLHILAALP (designed binder) [ADAPT variant MYDGF_07]

>  <answerLabel>
Satisfied

$$$$
>  <binder>
LTVAKFWALTELQEYGVSDFYANLITKAKTVEGVEALKLHILAALP (designed binder) [ADAPT variant PSA_01]

>  <answerLabel>
Not satisfied

$$$$

Exercise: For LYHAKWMASLELAKYGVSDFYWNLISKAKTVEGVEALKLHILAALP (designed binder) [ADAPT variant REN_01] , is the recorded kon below the cut-off of 300000 M⁻¹ s⁻¹?
Solution: Satisfied

Exercise: For LWAAKDDADWELWQYGVSDFYRALIWKAKTVEGVEALKLHILAALP (designed binder, also called ANG_6) [ADAPT variant ANG_06] , is the recorded kon below the cut-off of 300000 M⁻¹ s⁻¹?
Solution: Satisfied

Exercise: For LHEAKDWADYELWSYGVSDFYRALIWKAKTVEGVEALKLHILAALP (designed binder) [ADAPT variant ANG_13] , is the recorded kon below the cut-off of 300000 M⁻¹ s⁻¹?
Solution: Satisfied

Exercise: For LIWAKASAVRELHRYGVSDFYYELIVKAKTVEGVEALKLHILAALP (designed binder) [ADAPT variant TNFα_09] , is the recorded kon below the cut-off of 300000 M⁻¹ s⁻¹?
Solution: Satisfied

Exercise: For LYWAKDYADYELWQYGVSDFYRSLIWKAKTVEGVEALKLHILAALP (designed binder, also called ANG_2) [ADAPT variant ANG_02] , is the recorded kon below the cut-off of 300000 M⁻¹ s⁻¹?
Solution: Satisfied
